This collection of values is drawn from patent US20250215010A1.

Molecular target: MMP9 (Homo sapiens, UniProt P14780)
Sequence (P14780 94-707): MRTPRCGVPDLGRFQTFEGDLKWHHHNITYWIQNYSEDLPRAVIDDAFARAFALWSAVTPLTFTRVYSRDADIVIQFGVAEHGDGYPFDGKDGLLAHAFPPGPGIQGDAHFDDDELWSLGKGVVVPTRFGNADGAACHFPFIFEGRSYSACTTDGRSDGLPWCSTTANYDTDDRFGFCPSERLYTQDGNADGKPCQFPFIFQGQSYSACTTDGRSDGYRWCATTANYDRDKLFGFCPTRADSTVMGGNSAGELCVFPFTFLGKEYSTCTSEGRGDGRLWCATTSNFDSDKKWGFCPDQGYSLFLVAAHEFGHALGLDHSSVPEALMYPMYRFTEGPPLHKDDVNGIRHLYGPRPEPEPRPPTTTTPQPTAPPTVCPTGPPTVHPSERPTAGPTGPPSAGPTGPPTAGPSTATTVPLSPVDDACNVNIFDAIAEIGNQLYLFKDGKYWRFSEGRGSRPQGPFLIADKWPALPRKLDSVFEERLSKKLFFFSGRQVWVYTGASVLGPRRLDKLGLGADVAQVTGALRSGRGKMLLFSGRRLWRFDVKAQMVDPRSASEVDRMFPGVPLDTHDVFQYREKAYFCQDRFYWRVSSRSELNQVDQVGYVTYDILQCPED
Test: MMP-9 colorimetric inhibition assay (Enzo kit BML-AK410)
Assay type: biochemical
Settings: thiopeptide substrate, absorbance 415 nm; read-out: MMP 9 IC50 class
pIC50: −log10 of the molar value.
ATTRIBUTE MEASURED: pIC50

| COMPOUND | RESULT |
| --- | --- |
| COCCOC(=O)N1[C@@H]2CC[C@H]1[C@H](C(=O)NO)N(S(=O)(=O)c1ccc(Oc3ccc(OCF)cc3)nc1)C2 [Example 43] | > 7.30 |
| COCCOC(=O)N1[C@@H]2CC[C@H]1[C@H](C(=O)NO)N(S(=O)(=O)c1ccc(Oc3ccc(Cl)cc3F)nc1)C2 [Example 20] | > 7.30 |
| COCCOC(=O)N1[C@@H]2CC[C@H]1[C@H](C(=O)NO)N(S(=O)(=O)c1cnc(Oc3ccc(F)cc3)cn1)C2 [Example 17] | 5.00 to 6.00 |
| COC(=O)N1[C@@H]2CC[C@H]1[C@H](C(=O)NO)N(S(=O)(=O)c1ccc(Oc3ccc(F)cc3)nc1)C2 [Example 66] | > 7.30 |
| COCCOC(=O)N1[C@@H]2CC[C@H]1[C@H](C(=O)NO)N(S(=O)(=O)c1ccc(Oc3ccc(Cl)cc3)nc1)C2 [Example 8] | > 7.30 |
| COc1ccc(Oc2ccc(S(=O)(=O)N3C[C@H]4CC[C@@H]([C@@H]3C(=O)NO)N4C(=O)N3CCOCC3)cn2)cc1F [Example 73] | > 7.30 |
| COCCOC(=O)N1[C@@H]2CC[C@H]1[C@H](C(=O)NO)N(S(=O)(=O)N1CCC(Oc3ccc(Cl)cc3)CC1)C2 [Example 44] | > 7.30 |
| COCCOC(=O)N1[C@@H]2CC[C@H]1[C@H](C(=O)NO)N(S(=O)(=O)c1ccc(OC3CCN(C(C)C)CC3)nc1)C2 [Example 75] | 6.00 to 7.30 |
| CC(=O)N1[C@@H]2CC[C@H]1[C@H](C(=O)NO)N(S(=O)(=O)c1ccc(Oc3ccc(F)cc3)nc1)C2 [Example 53] | > 7.30 |
| CCC(=O)N1[C@@H]2CC[C@H]1[C@H](C(=O)NO)N(S(=O)(=O)c1ccc(Oc3ccc(OC(C)C)cc3)nc1)C2 [Example 59] | > 7.30 |
| COCCOC(=O)N1[C@@H]2CC[C@H]1[C@H](C(=O)NO)N(S(=O)(=O)c1ccc(Oc3ccc(C(C)(C)O)cc3)nc1)C2 [Example 26] | 6.00 to 7.30 |
| COCCOC(=O)N1[C@@H]2CC[C@H]1[C@H](C(=O)NO)N(S(=O)(=O)c1ccc(Oc3ccc(F)cc3F)nc1)C2 [Example 21] | > 7.30 |
| COCCOC(=O)N1[C@@H]2CC[C@H]1[C@H](C(=O)NO)N(S(=O)(=O)c1ccc(Oc3cnn(C(C)C)c3)nc1)C2 [Example 37] | 6.00 to 7.30 |
| CCc1ccc(Oc2ccc(S(=O)(=O)N3C[C@H]4CC[C@@H]([C@@H]3C(=O)NO)N4C(=O)OCCOC)cn2)cc1 [Example 33] | > 7.30 |
| COCCOC(=O)N1[C@@H]2CC[C@H]1[C@H](C(=O)NO)N(S(=O)(=O)c1ccc(Oc3cncc(F)c3)nc1)C2 [Example 23] | 6.00 to 7.30 |
| COCCOC(=O)N1[C@@H]2CC[C@H]1[C@H](C(=O)NO)N(S(=O)(=O)N1CCN(Cc3ccc(Cl)cc3)CC1)C2 [Example 76] | 6.00 to 7.30 |
| COCCOC(=O)N1[C@@H]2CC[C@H]1[C@H](C(=O)NO)N(S(=O)(=O)c1ccc(Oc3ccc(C)cc3)nc1)C2 [Example 32] | > 7.30 |
| COCCOC(=O)N1[C@@H]2CC[C@H]1[C@H](C(=O)NO)N(S(=O)(=O)c1cnc(Oc3ccc(F)cc3)c(F)c1)C2 [Example 6] | > 7.30 |
| COCCOC(=O)N1[C@@H]2CC[C@H]1[C@H](C(=O)NO)N(S(=O)(=O)c1ccc(Oc3ccc(C)nc3)nc1)C2 [Example 16] | 6.00 to 7.30 |
| CC(C)OC(=O)N1[C@@H]2CC[C@H]1[C@H](C(=O)NO)N(S(=O)(=O)c1ccc(Oc3ccc(F)cc3)nc1)C2 [Example 67] | > 7.30 |
| CC(=O)N1[C@@H]2CC[C@H]1[C@H](C(=O)NO)N(S(=O)(=O)c1ccc(Oc3ccc(OC(C)C)cc3)nc1)C2 [Example 58] | > 7.30 |
| COCCOC(=O)N1[C@@H]2CC[C@H]1[C@H](C(=O)NO)N(S(=O)(=O)c1ccc(Oc3cncc(Cl)c3)nc1)C2 [Example 15] | 6.00 to 7.30 |
| CC(=O)N1[C@@H]2CC[C@H]1[C@H](C(=O)NO)N(S(=O)(=O)c1ccc(Oc3ccc(OC(F)(F)F)cc3)nc1)C2 [Example 54] | > 7.30 |
| COCCOC(=O)N1[C@@H]2CC[C@H]1[C@H](C(=O)NO)N(S(=O)(=O)c1ccc(Oc3cnn(CC(C)C)c3)nc1)C2 [Example 38] | 6.00 to 7.30 |
| COCCOC(=O)N1[C@@H]2CC[C@H]1[C@H](C(=O)NO)N(S(=O)(=O)c1ccc(Oc3ccc(F)cn3)cc1)C2 [Example 7] | > 7.30 |
| CC(=O)N1[C@@H]2CC[C@H]1[C@H](C(=O)NO)N(S(=O)(=O)N1CCC(Oc3ccnc(C(F)(F)F)c3)CC1)C2 [Example 64] | 6.00 to 7.30 |

###

Measured pIC50, listed per entry.
Target: MMP9 (Homo sapiens, UniProt P14780)
Assay: MMP-9 colorimetric inhibition assay (Enzo kit BML-AK410)
Format: biochemical
Details: thiopeptide substrate, absorbance 415 nm; read-out: MMP 9 IC50 class
pIC50: −log10 of the molar value.
ATTRIBUTE MEASURED: pIC50

| COMPOUND | RESULT |
| --- | --- |
| COCCOC(=O)N1[C@@H]2CC[C@H]1[C@H](C(=O)NO)N(S(=O)(=O)c1ccc(Oc3nc4ccc(F)cc4o3)c(F)c1)C2 [Example 82] | 5.00 to 6.00 |
| COCCOC(=O)N1[C@H]2CC[C@@H]1[C@@H](C(=O)NO)N(S(=O)(=O)c1cc(F)c(Oc3ccc(Cl)cc3)c(F)c1)C2 [Example 3] | 5.00 to 6.00 |
| COCCOC(=O)N1[C@@H]2CC[C@H]1[C@H](C(=O)NO)N(S(=O)(=O)c1ccc(Oc3ccc(F)cc3)nc1)C2 [Example 1] | > 7.30 |
| O=C(NO)[C@H]1[C@@H]2CC[C@H](CN1S(=O)(=O)c1ccc(Oc3ccc(OC(F)(F)F)cc3)nc1)N2C(=O)N1CCOCC1 [Example 70] | > 7.30 |
| COCCOC(=O)N1[C@@H]2CC[C@H]1[C@H](C(=O)NO)N(S(=O)(=O)c1ccc(Oc3ccc(OCC(F)(F)F)cc3)nc1)C2 [Example 25] | > 7.30 |
| COCCOC(=O)N1[C@@H]2CC[C@H]1[C@H](C(=O)NO)N(S(=O)(=O)c1ccc(Oc3ccc(OC(F)F)cc3)nc1)C2 [Example 24] | > 7.30 |

###

Measured pIC50, listed per entry.
Target: MMP2 (Homo sapiens, UniProt P08253)
Sequence (P08253 110-660): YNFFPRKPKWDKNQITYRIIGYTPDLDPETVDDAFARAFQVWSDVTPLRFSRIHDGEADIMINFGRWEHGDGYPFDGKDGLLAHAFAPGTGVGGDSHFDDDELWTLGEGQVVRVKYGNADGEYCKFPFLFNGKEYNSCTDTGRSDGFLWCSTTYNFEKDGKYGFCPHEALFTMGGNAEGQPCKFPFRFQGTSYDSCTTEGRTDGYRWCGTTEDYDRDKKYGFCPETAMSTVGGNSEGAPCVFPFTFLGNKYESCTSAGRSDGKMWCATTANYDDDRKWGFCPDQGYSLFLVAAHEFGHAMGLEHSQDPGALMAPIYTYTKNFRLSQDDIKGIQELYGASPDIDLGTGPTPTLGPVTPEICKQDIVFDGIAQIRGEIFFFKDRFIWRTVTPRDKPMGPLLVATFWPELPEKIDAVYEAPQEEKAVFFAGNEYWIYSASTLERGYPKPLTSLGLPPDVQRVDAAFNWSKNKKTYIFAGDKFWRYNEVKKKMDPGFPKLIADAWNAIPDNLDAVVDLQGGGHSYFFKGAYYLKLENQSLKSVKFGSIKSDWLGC
Assay: MMP-2 colorimetric inhibition assay (Enzo kit BML-AK408)
Format: biochemical
Settings: thiopeptide substrate, absorbance 415 nm; read-out: MMP 2 IC50 class
pIC50: −log10 of the molar value.

| SMILES DATA | pIC50 |
| --- | --- |
| CN1CCN(C(=O)N2[C@@H]3CC[C@H]2[C@H](C(=O)NO)N(S(=O)(=O)c2ccc(Oc4ccc(F)cc4)nc2)C3)CC1 | > 7.30 |
| COCCOC(=O)N1[C@@H]2CC[C@H]1[C@H](C(=O)NO)N(S(=O)(=O)c1ccc(Oc3ccc(OC)nc3)nc1)C2 | > 7.30 |
| COCCOC(=O)N1[C@@H]2CC[C@H]1[C@H](C(=O)NO)N(S(=O)(=O)c1ccc(Oc3ccc(C(C)(C)O)cc3)nc1)C2 | > 7.30 |

###

Target: MMP1 (Homo sapiens, UniProt P03956)
Sequence (P03956 100-269 limits assumed): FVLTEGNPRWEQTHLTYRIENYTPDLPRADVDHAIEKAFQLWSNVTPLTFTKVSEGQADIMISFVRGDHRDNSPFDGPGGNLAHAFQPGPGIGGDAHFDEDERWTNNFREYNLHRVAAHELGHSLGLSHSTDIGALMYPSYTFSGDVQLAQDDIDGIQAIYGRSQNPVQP
Assay: MMP-1 colorimetric inhibition assay (Enzo kit BML-AK404)
Format: biochemical
Conditions: thiopeptide substrate, absorbance 415 nm; read-out: MMP 1 IC50 class
ATTRIBUTE MEASURED: IC50

| SMILES DATA | ATTRIBUTE MEASURED | RESULT |
| --- | --- | --- |
| COCCOC(=O)N1[C@@H]2CC[C@H]1[C@H](C(=O)NO)N(S(=O)(=O)c1ccc(OC3CCN(C(C)C)CC3)nc1)C2 | IC50 | 1000 to 10000 nM |
| COCCOC(=O)N1[C@@H]2CC[C@H]1[C@H](C(=O)NO)N(S(=O)(=O)c1ccc(Oc3ccc(F)cc3)cn1)C2 | IC50 | 1000 to 10000 nM |
| CC(C)Oc1ccc(Oc2ccc(S(=O)(=O)N3C[C@H]4CC[C@@H]([C@@H]3C(=O)NO)N4C(=O)N3CCOCC3)cn2)cc1 | IC50 | 1000 to 10000 nM |
| COCCOC(=O)N1[C@@H]2CC[C@H]1[C@H](C(=O)NO)N(S(=O)(=O)c1ccc(Oc3ccc(OC)c(F)c3)nc1)C2 | IC50 | 1000 to 10000 nM |
| COCCOC(=O)N1[C@@H]2CC[C@H]1[C@H](C(=O)NO)N(S(=O)(=O)c1ccc(Oc3ccc(F)cn3)cc1)C2 | IC50 | 50 to 1000 nM |
| COCCOC(=O)N1[C@@H]2CC[C@H]1[C@H](C(=O)NO)N(S(=O)(=O)c1cnc(Oc3ccc(F)cc3)c(F)c1)C2 | IC50 | 1000 to 10000 nM |
| COCCOC(=O)N1[C@@H]2CC[C@H]1[C@H](C(=O)NO)N(S(=O)(=O)c1ccc(Oc3ccc(OCC(F)(F)F)cc3)nc1)C2 | IC50 | 1000 to 10000 nM |
| COCCOC(=O)N1[C@@H]2CC[C@H]1[C@H](C(=O)NO)N(S(=O)(=O)c1ccc(Oc3ccc(OC(C)C)cc3)nc1)C2 | IC50 | 50 to 1000 nM |
| COCCOC(=O)N1[C@@H]2CC[C@H]1[C@H](C(=O)NO)N(S(=O)(=O)c1ccc(Oc3nc4cc(Cl)ccc4o3)c(F)c1)C2 | IC50 | > 10000 nM |
| O=C(NO)[C@H]1[C@@H]2CC[C@H](CN1S(=O)(=O)c1ccc(Oc3ccc(F)cc3)nc1)N2C(=O)N1CCOCC1 | IC50 | 1000 to 10000 nM |
| COCCOC(=O)N1[C@@H]2CC[C@H]1[C@H](C(=O)NO)N(S(=O)(=O)c1ccc(Oc3cnn(-c4ccc(F)cc4)c3)nc1)C2 | IC50 | 50 to 1000 nM |
| COCCOC(=O)N1[C@@H]2CC[C@H]1[C@H](C(=O)NO)N(S(=O)(=O)c1ccc(OC3CCC(C)(C)CC3)nc1)C2 | IC50 | 1000 to 10000 nM |
| COCCOC(=O)N1[C@@H]2CC[C@H]1[C@H](C(=O)NO)N(S(=O)(=O)c1ccc(Oc3ccc(F)cc3)c(F)c1)C2 | IC50 | 50 to 1000 nM |
| O=C(NO)[C@H]1[C@@H]2CC[C@H](CN1S(=O)(=O)c1ccc(Oc3ccc(F)cc3)nc1)N2CC(=O)N1CCCC1 | IC50 | 1000 to 10000 nM |
| COCCOC(=O)N1[C@@H]2CC[C@H]1[C@H](C(=O)NO)N(S(=O)(=O)c1ccc(Oc3ccc(OC(C)(C)C)cc3)nc1)C2 | IC50 | > 10000 nM |
| COCCOC(=O)N1[C@@H]2CC[C@H]1[C@H](C(=O)NO)N(S(=O)(=O)c1ccc(Oc3ccc(OC)nc3)nc1)C2 | IC50 | 50 to 1000 nM |
| CN1CCN(C(=O)N2[C@@H]3CC[C@H]2[C@H](C(=O)NO)N(S(=O)(=O)c2ccc(Oc4ccc(F)cc4)nc2)C3)CC1 | IC50 | 1000 to 10000 nM |
| CCC(=O)N1[C@@H]2CC[C@H]1[C@H](C(=O)NO)N(S(=O)(=O)c1ccc(Oc3ccc(OC(C)C)cc3)nc1)C2 | IC50 | 1000 to 10000 nM |
| COCCOC(=O)N1[C@@H]2CC[C@H]1[C@H](C(=O)NO)N(S(=O)(=O)c1ccc(Oc3cnc(OC)nc3)nc1)C2 | IC50 | > 10000 nM |
| COCCOC(=O)N1[C@@H]2CC[C@H]1[C@H](C(=O)NO)N(S(=O)(=O)c1ccc(Oc3ccc(C)nc3)nc1)C2 | IC50 | 1000 to 10000 nM |
| COCCOC(=O)N1[C@@H]2CC[C@H]1[C@H](C(=O)NO)N(S(=O)(=O)c1ccc(Oc3ccc(F)c(F)c3)nc1)C2 | IC50 | 50 to 1000 nM |
| COCCOC(=O)N1[C@@H]2CC[C@H]1[C@H](C(=O)NO)N(S(=O)(=O)c1cnc(Oc3ccc(F)cc3)cn1)C2 | IC50 | > 10000 nM |
| CC(C)OC(=O)N1[C@@H]2CC[C@H]1[C@H](C(=O)NO)N(S(=O)(=O)c1ccc(Oc3ccc(F)cc3)nc1)C2 | IC50 | 50 to 1000 nM |
| COCCOC(=O)N1[C@@H]2CC[C@H]1[C@H](C(=O)NO)N(S(=O)(=O)c1ccc(Oc3ccc(OC)cc3)nc1)C2 | IC50 | 1000 to 10000 nM |
| COCCOC(=O)N1[C@@H]2CC[C@H]1[C@H](C(=O)NO)N(S(=O)(=O)c1ccc(Oc3ccc(OCF)cc3)nc1)C2 | IC50 | 1000 to 10000 nM |
| COCCOC(=O)N1[C@@H]2CC[C@H]1[C@H](C(=O)NO)N(S(=O)(=O)c1ccc(Oc3ccc(Cl)cc3F)nc1)C2 | IC50 | 50 to 1000 nM |
